Hello, the source for this data is paper PMC11578424, in case you need it.

# target under test: ROS1 (Homo sapiens, UniProt P08922)
# Sequence (P08922 1883-2347 limits assumed): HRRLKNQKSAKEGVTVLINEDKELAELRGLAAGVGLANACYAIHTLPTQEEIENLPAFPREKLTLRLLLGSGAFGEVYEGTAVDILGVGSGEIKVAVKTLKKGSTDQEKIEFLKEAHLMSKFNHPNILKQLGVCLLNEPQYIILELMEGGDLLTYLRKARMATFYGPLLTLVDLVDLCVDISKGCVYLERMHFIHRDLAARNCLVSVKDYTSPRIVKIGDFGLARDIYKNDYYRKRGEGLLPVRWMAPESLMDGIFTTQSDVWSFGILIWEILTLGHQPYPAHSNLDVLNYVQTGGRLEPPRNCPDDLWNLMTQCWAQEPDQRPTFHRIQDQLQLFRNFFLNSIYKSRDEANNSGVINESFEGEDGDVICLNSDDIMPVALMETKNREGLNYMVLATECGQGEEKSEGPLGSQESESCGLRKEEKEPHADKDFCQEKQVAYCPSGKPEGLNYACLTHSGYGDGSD
quantity measured: IC50 (µM)
Numbers only; they are read as µM.

Name the recorded IC50 of CNC(=O)c1ccccc1Nc1nc(N/N=C/c2ccc(F)cc2)ncc1Cl [14f] , assay system ROS1 (Homo sapiens, UniProt P08922). 0.593

###

# target under test: EGFR (Homo sapiens, UniProt P00533)
# Sequence (P00533 25-1210, species assumed): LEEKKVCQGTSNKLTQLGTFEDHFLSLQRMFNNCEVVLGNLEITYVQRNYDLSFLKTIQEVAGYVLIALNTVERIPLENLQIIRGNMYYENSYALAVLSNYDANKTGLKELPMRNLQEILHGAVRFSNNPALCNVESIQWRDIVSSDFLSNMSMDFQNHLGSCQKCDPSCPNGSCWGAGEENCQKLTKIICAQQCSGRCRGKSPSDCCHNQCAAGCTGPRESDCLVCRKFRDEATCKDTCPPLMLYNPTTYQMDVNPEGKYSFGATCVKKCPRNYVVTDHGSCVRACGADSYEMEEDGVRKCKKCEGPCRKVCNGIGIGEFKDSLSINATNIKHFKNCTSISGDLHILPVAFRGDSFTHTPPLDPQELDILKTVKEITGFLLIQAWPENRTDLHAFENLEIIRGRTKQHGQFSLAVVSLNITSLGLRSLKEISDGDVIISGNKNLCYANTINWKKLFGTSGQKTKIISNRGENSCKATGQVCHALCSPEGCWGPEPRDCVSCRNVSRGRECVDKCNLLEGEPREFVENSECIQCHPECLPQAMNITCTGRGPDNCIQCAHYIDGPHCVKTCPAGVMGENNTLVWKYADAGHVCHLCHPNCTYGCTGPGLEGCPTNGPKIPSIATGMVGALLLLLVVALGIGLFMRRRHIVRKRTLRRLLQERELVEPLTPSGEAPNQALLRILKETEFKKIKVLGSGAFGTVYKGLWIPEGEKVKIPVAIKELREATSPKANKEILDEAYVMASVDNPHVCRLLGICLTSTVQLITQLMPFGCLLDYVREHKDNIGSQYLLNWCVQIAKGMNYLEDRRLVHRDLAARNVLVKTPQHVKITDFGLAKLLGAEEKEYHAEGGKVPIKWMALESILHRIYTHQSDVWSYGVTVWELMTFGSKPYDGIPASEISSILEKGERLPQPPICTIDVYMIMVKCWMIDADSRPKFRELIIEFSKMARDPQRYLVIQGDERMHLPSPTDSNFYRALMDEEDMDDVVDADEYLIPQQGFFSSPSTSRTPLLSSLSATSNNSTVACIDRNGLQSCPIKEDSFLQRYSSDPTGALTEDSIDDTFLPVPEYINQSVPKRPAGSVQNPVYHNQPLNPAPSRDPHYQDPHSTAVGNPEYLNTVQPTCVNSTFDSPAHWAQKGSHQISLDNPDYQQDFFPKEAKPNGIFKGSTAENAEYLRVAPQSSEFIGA
pIC50: −log10 of the molar value.
quantity measured: pIC50

Give recorded pIC50. CNC(=O)c1ccccc1Nc1nc(N/N=C/c2ccc(F)cc2)ncc1Cl [14f] < 6.00

###

// reported melting point per item

Record excerpt, results attached:
CNC(=O)c1ccccc1Nc1nc(N/N=C/c2ccc(F)cc2F)ncc1Cl [14r]; 243.2 to 245.1 °C
CNC(=O)c1ccccc1Nc1nc(N/N=C/c2cccc(F)c2)ncc1Cl; 203.3 to 205.1 °C
CNC(=O)c1ccccc1Nc1nc(N/N=C/c2cccc(OC)c2)ncc1Cl [14k]; 199.3 to 200.4 °C
CNC(=O)c1ccccc1Nc1nc(N/N=C/c2ccccc2)ncc1Cl [14a]; 199.1 to 202.1 °C
CNC(=O)c1ccccc1Nc1nc(N/N=C/c2ccc(Cl)cc2)ncc1Cl; 194.1 to 195.8 °C

Give a short answer stating reported melting point for CNC(=O)c1ccccc1Nc1nc(N/N=C/c2cccc(C(F)(F)F)c2)ncc1Cl . 207.1 to 209.8 °C

Return melting point for the following molecule: CNC(=O)c1ccccc1Nc1nc(N/N=C(\C)c2ccc(F)cc2)ncc1Cl [14ad] 222.6 to 223.8 °C
